System: A549
Assay: Anticancer activity against human A549 cells after 72 hrs by sulforhodamine B assay
Type: functional, cell-based
Conditions: A549, 72 h
Collected IC50 values appear next to each entry.
Kindly answer with a numeric value in µg/mL, unit omitted.

Exercise: Identify IC50 associated with the compound "C[C@@H]1CCCCCCCCC(=O)O[C@@H]2C[C@@H](O)[C@H](C)O[C@H]2O[C@@H]2C[C@@H](O)[C@H](C)O[C@H]2O1"
Key: 0.57

Exercise: Identify IC50 associated with the compound "C=CCCCCOC(=O)CCCC[C@@H](C)O[C@@H]1O[C@@H](C)[C@H](O)C[C@H]1O"
Key: 0.12

Exercise: Identify IC50 associated with the compound "C[C@H](CCCCC(=O)Nc1cccc(Br)c1)O[C@@H]1O[C@@H](C)[C@H](O[C@@H]2O[C@@H](C)[C@H](O)C[C@H]2O)C[C@H]1O[C@@H]1O[C@@H](C)[C@H](O)C[C@H]1O"
Key: 0.07

Exercise: Identify IC50 associated with the compound "CCc1ccc(NC(=O)CCCC[C@@H](C)O[C@@H]2O[C@@H](C)[C@H](O)C[C@H]2O)cc1"
Key: 0.34

---
Exercise: Identify IC50 associated with the compound "CCCCCC[C@@H](C)O[C@@H]1O[C@@H](C)[C@H](O)C[C@H]1O[C@@H]1O[C@@H](C)[C@H](OC(=O)CCCC)C[C@H]1OC(=O)CCCC"
Key: 0.78

Exercise: Identify IC50 associated with the compound C[C@H](CCCCC1CO1)O[C@@H]1O[C@@H](C)[C@H](O[C@@H]2O[C@@H](C)[C@H](O)C[C@H]2O)C[C@H]1O[C@@H]1O[C@@H](C)[C@H](O)C[C@H]1O (stereo partly drawn)
Key: 0.76
